B1: Osa-1-4 twister ribozyme (parent)
chain: CCGCCUAACACUGCCAAUGCCGGUCCCAAGCCCGGAUAAAAGUGGAGGGGGCGG

variants of: B1; assay: self-cleavage, relative activity (ratio to wild type); higher = more cleavage; co-transcriptional
observedProperty: self-cleavage
Please give the numeric answer without any surrounding text.

Use these answered entries as a reference point.
mut | self-cleavage
C52G G34A | 0.77
A17C G47U | 0.09

// sample C11A G23C , its self-cleavage was 0.03

The variant listed as G34A G51U has a reported self-cleavage of 0.1

Given item A10C A17G , the value recorded as its self-cleavage is 0.1

A39G C25U yielded self-cleavage of 0.53

Looking up A38G G22C , I found its self-cleavage recorded as 0.13

# self-cleavage (variant: A10G C9U ) is 0.77

Input G50A G51U . Output self-cleavage: 0.16

For this variant ( C14A G19U ), measured self-cleavage is 0.07
